Each item that follows carries a reported IC50.
- Assayed Target: T1, GLP-1 receptor (rat), P32301
- T1 chain: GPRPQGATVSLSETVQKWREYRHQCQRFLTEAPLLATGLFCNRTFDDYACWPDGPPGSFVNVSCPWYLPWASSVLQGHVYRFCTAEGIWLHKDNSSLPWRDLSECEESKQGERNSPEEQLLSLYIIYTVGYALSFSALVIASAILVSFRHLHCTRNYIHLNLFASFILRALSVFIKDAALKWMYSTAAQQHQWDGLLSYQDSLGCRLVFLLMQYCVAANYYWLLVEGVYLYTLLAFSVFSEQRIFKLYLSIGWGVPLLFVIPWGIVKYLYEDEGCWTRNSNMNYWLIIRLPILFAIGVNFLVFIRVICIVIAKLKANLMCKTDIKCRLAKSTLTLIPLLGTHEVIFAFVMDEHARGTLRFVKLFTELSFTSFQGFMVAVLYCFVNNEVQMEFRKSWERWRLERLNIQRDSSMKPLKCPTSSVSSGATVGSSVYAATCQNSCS
- Test Summary: competition
- Condition Description: modification not given

Binder	IC50, nM
HSQGTFTSDYARYLDAAKAKEFIAWLVKGRG [G61]	10.6
HSQGTFTSDYARYLDARRAREFIKWLVRGRC [G185]	4.5
HSQGTFTSDYARYLDARRAREFIKWLVRGRGK [G182]	12.6
HSQGTFTSDYAKYLDAAKAKEFIAWLVKGRG [G60]	13.8
